target: UT receptors in Human Skeletal Muscle Myoblasts (HSMM) (Homo sapiens, UniProt Q9UKP6); conditions: read-out: Human UII Average Binding Ki; 0.150 nM (125I)-U-II, intact HSMM, 3 h, 25° C.
measure: pKi
On this scale, pKi is minus log10 of a concentration expressed in M (mol/L).

Q: Using the record for CCN1CCN(c2cccc3c2[C@H]2CCC[C@H](c4ccc(OC)c(OC)c4)N2C3=O)CC1 , report its pKi.
A: 7.19

====

molecular target: Human UII (6D9 human rhabdomyosarcoma cells) (Homo sapiens, UniProt Q9UKP6); construct: 6D9: isolated by dilution subcloning of RMS13 cells; host or cells: 6D9 human rhabdomyosarcoma cells (subclone of RMS13); test: Human UII Calcium Mobilization Assay; type: cell-based; conditions: FLIPR TETRA, column head prints Ki (μM), read-out: Human UII Ca+ Mobilization Average IC50
Sequence (Q9UKP6 whole entry): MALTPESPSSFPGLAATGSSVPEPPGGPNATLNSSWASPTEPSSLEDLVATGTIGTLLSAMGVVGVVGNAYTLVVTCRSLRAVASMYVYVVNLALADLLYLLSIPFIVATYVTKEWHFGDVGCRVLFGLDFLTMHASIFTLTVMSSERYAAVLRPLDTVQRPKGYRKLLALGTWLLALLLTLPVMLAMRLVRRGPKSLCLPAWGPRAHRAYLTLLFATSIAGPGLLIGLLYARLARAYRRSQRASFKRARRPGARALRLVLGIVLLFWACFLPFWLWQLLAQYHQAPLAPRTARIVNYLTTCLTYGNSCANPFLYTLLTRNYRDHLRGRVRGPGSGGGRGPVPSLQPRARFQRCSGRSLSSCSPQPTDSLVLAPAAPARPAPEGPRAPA
measure: IC50 (µM)
Enter your answer as a number in µM; do not include the unit.

Q: Could you tell me which IC50 is on file for CCN1CCN(c2cccc3c2[C@H]2CCC[C@H](c4ccc(OC)c(OC)c4)N2C3=O)CC1 ?
A: 0.34
